Form field: Ki (one value per entry).
# target: Ras-related C3 botulinum toxin substrate 1 (Homo sapiens) (UniProt P63000)
# assay.details: activated mutant Rac1 GTP binding inhibitors, SAR follow-up, biochemical, additional analogs, multiplex bead flow cytometry (AID 2039)
# stated.conditions: Multiplex flow cytometry bead GTP-binding assay, measured here: Ki for Rac1 nucleotide binding
Reply with just the number (in nM).

Reference set, count: 2
O=C(C#Cc1ccccc1)c1ccc([N+](=O)[O-])cc1: 760
O=C1N=c2ccccc2=C1c1[nH]c(=S)[nH]c1O: 640

Please give the documented Ki of CSc1ccc(/C=C2/C(C)=C(CC(=O)O)c3cc(F)ccc32)cc1
4850

----------
Known pKi of a selection of compounds
# target: Ras-related C3 botulinum toxin substrate 1 (Homo sapiens) (UniProt P63000)
# assay.details: activated mutant Rac1 GTP binding inhibitors, SAR follow-up, biochemical, additional analogs, multiplex bead flow cytometry (AID 2039)
# stated.conditions: Multiplex flow cytometry bead GTP-binding assay, measured here: Ki for Rac1 nucleotide binding
The meaning of pKi here: minus log10 of the concentration in molar units.

Recorded results for 8 compounds are shown here.
CC1=C(CC(=O)O)c2cc(F)ccc2/C1=C/c1ccc(S(C)=O)cc1 (centres undefined): 5.37
O=C1N=c2ccccc2=C1c1[nH]c(=O)[nH]c1O: 5.97
O=C1C(c2c(O)[nH]c3ccc(Br)cc23)=Nc2ccccc21: 5.95
N#Cc1c(-c2ccc(Cl)cc2)c(C(=O)c2ccccc2)n(S(=O)(=O)c2ccc([N+](=O)[O-])cc2)c1N: 6.27
COc1cc(-c2c(C#N)c(N)n(S(=O)(=O)c3c(C(C)C)cc(C(C)C)cc3C(C)C)c2C(=O)c2ccccc2)cc(OC)c1OC: 5.22
O=Nc1c(-c2c(O)[nH]c3ccc(Br)cc23)[nH]c2ccccc12: 5.53
COc1ccc(S(=O)(=O)n2c(N)c(C#N)c(-c3cncc(Br)c3)c2C(=O)c2ccccc2)cc1: 5.97
O=Nc1c(-c2c(O)[nH]c3c(F)cccc23)[nH]c2ccccc12: 5.54

Okay, next one:
Read off the recorded pKi for O=C1C(c2c(O)[nH]c3c(Br)cccc23)=Nc2ccccc21
5.60

----------
# target: Ras-related C3 botulinum toxin substrate 1 (Homo sapiens)
# assay.details: activated mutant Rac1 GTP binding inhibitors, SAR follow-up, biochemical, additional analogs, multiplex bead flow cytometry (AID 2039)
# stated.conditions: Multiplex flow cytometry bead GTP-binding assay
Activity calls are given as the source filed them. No rule for the calls is given here.
measured.property: EC50

Some solved entries appear below for comparison.
CC(=O)Oc1ccccc1C(=O)O: inactive
O=C1C(c2c(O)[nH]c3c(Cl)cccc23)=Nc2ccccc21: inactive
COc1ccc(S(=O)(=O)n2c(N)c(C#N)c(-c3ccccc3)c2C(=O)c2ccc(Br)cc2)cc1: inactive
O=Nc1c(-c2c(O)[nH]c3c(Cl)cccc23)[nH]c2ccccc12: inactive

Give EC50 for CSc1ccc(/C=C2/C(C)=C(CC(=O)O)c3cc(F)ccc32)cc1
inactive

Give a short answer stating reported EC50 for CC(C(=O)O)c1cccc(Oc2ccccc2)c1 (stereo not given) .
inactive

Please list EC50 recorded for the molecule COc1ccc2cc(CC(=O)O)ccc2c1
inactive

Return the recorded EC50 value; entry: COc1ccc(-c2c(C#N)c(N)n(S(C)(=O)=O)c2C(=O)c2ccccc2)cc1Br
inactive

Tell me its EC50 given O=C1C(c2c(O)[nH]c3c(Br)cccc23)=Nc2ccccc21 as the entry.
inactive

Dear colleague, please send me the reported EC50 for O=Nc1c(-c2c(O)[nH]c3c(F)cccc23)[nH]c2ccccc12 when you can.
inactive

Could you please provide reported EC50 for O=C1N=c2ccccc2=C1c1[nH]c(=S)[nH]c1O ? Thanks!
inactive

Give reported EC50 value for O=C1C(c2c(O)[nH]c3ccccc23)=Nc2ccccc21
inactive

Supply measured EC50 of O=C(C#Cc1ccccc1)c1ccc([N+](=O)[O-])cc1 in your reply.
8.37 µM

Give the reported value of EC50 for this record: O=C1Nc2c(Br)cccc2/C1=C1/Cc2ccccc2C1=O
inactive

Quickly give me recorded EC50 for O=Nc1c(-c2c(O)[nH]c3c(Br)cccc23)[nH]c2ccccc12
inactive

Fill in EC50 for record O=C1C(c2c(O)[nH]c3c(F)cccc23)=Nc2ccccc21
inactive

Quick one: give measured EC50 for O=Nc1c(-c2c(O)[nH]c3ccc(Br)cc23)[nH]c2ccccc12
inactive
